TARGET_UNDER_TEST: T1, human LAG-3 on cells (HEK293-hLAG-3 stable cell line) (human, UniProt P18627 23-525)
T1 sequence: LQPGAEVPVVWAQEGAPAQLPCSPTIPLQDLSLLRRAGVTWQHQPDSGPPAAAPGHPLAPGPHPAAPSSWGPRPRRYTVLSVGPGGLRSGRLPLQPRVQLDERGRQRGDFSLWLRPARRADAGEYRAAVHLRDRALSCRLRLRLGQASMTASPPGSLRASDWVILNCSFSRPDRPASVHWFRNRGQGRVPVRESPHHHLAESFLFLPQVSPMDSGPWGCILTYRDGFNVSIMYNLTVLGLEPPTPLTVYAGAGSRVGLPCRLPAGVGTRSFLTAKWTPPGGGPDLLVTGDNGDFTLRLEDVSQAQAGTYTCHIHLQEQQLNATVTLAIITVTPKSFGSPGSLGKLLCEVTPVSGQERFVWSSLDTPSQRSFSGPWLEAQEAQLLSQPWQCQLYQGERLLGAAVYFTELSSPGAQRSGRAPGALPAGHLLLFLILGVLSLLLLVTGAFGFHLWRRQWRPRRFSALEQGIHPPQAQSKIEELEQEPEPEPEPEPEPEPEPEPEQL
RUN_DESCRIPTION: FACS, HEK293-hLAG-3, antibody 200.000 nM
PARAMETER: Mean fluorescence intensity
The answer should be written as a number, with no unit following it.

BINDER: 556F6B8 mouse-human chimeric antibody (antibody, V domains shown, also called mAb123-556F6B8; 556F8B8) VH: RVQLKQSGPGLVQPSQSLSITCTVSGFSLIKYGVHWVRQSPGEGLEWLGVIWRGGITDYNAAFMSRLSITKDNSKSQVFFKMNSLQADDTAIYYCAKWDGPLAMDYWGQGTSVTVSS VL: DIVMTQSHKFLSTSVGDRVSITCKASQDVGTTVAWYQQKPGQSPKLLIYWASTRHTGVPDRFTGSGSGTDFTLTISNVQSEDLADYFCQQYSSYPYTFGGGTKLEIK
Mean fluorescence intensity: 125

Next binder, please.
Summary for this binder, 105F1E10 mouse-human chimeric antibody (antibody, V domains shown, also called mAb009-105F1E10) VH: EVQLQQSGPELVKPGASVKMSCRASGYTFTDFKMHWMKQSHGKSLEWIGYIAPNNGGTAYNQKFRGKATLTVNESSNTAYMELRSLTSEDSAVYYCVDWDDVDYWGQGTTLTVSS VL: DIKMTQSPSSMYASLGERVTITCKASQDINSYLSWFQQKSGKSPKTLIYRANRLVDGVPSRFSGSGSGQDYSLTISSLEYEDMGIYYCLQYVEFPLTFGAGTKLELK : Mean fluorescence intensity is 175

// data source = patent US20210155689A1
